# Tested on: p3xCPRE/Luc
# Assay Overview: Activation of p3xCPRE/Luc by small molecular weight organic compounds (Table 6)
# Type: cell-based, human
# Measurement Setup: luciferase activity 16 hours after exposure
# Description: In the in vitro assay system described above, a stable HeLa cell line was generated that contains a stably-integrated copy of the CPRE-Luc gene. HMECs and HeLa cells were transiently transfected with 1 μg of 3xCPRE-Luc and 0.1 μg of pRL-SV40. One day after transfection, cells were treated with the compounds listed in Table 6 Luciferase activities were determined 16 hours after exposure to the compounds. […]
Short version: CPRE Activity: concentration to achieve a two-fold induction of CPRE activity over control at least 4 µM is condition met, less is condition not met.

Would you say COc1cc(OC)c(-c2cc3ccccc3s2)cc1/C=C/C(=O)c1cc(OC)c(OC)c(OC)c1 shows CPRE Activity: concentration to achieve a two-fold induction of CPRE activity over control at minimum 4 µM?
condition met

Again, but for COc1cc2c(cc1OC)C(=O)/C(=C/c1cc(Br)c(OC)c(OC)c1)CC2
condition not met

Again, but for COc1ccc(-c2cccs2)cc1/C=C/C(=O)c1cc(OC)c(OC)c(OC)c1
condition not met

Again, but for COc1cc(OC)c(C(=O)/C=C/c2cc(Br)c(OC)c(OC)c2)cc1OC
condition not met

Again, but for CCOc1cc(OCC)c(C(=O)/C=C/c2cc(Br)c(OC)c(OC)c2)cc1OCC
condition met
